system: ALK (Homo sapiens, UniProt Q9UM73)
Construct: host or cells: baculovirus expression system
Sequence (Q9UM73 19-1620): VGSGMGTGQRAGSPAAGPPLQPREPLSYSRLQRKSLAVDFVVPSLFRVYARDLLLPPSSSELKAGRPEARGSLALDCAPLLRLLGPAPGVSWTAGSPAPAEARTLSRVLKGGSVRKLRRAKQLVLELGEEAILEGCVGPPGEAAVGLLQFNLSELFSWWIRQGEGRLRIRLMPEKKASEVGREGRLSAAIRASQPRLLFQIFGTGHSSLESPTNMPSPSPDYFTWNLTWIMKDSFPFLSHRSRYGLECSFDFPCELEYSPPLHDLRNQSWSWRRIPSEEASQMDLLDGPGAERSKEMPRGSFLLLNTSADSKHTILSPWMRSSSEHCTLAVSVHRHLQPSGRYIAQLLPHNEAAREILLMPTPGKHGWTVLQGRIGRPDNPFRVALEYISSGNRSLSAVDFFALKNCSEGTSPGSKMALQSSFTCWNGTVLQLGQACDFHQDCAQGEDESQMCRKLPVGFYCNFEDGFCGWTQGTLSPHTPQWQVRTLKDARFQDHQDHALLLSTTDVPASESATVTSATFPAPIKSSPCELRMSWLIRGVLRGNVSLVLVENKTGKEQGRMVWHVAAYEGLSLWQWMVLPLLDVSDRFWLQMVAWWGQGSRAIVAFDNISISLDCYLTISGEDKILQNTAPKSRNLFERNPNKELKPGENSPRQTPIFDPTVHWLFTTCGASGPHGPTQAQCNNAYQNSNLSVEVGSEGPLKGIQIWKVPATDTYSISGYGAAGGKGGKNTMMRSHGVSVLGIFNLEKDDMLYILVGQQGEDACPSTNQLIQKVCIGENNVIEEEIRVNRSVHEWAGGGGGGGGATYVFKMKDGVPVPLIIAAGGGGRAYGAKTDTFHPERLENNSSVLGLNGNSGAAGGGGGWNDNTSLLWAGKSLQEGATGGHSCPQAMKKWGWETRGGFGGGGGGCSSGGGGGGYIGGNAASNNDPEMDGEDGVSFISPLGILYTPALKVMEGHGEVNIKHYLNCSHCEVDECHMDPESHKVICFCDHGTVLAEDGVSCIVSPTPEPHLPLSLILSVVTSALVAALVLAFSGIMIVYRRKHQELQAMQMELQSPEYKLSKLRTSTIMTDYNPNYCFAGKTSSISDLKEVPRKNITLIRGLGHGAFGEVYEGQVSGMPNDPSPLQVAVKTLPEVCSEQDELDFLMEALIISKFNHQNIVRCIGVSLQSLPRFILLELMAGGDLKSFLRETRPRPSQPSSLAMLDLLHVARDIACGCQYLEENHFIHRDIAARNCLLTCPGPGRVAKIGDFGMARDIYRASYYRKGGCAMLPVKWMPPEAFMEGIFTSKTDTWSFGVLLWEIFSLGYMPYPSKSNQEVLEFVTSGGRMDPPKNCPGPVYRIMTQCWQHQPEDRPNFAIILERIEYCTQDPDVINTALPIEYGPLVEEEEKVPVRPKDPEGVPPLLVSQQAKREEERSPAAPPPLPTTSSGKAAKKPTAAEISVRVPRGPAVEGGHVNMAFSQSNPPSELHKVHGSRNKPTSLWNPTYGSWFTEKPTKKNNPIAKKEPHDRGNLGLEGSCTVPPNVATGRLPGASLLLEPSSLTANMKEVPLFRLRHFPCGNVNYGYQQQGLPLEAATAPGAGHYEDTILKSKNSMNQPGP
method.summary: ALK Kinase Assay (ELISA/TRF, PLC-γ substrate)
Assay type: biochemical
condition.notes: ALK kinase inhibition, 1 μM ATP; read-out: ALK Potency
measured.endpoint: IC50

input: I would be grateful if you could share the reported IC50 for CN1CCC(C(=O)N2CCC(c3ccc(Nc4ncc5ccc(-c6ccccc6N(C)S(C)(=O)=O)n5n4)cc3)CC2)CC1 [Example 502] .
output: < 100 nM

input: Try this compound too: Cc1cc(Nc2ncc3ccc(-c4cccc(S(=O)(=O)NC(C)(C)C)c4)n3n2)ccc1C1CCN(CC(N)=O)CC1 [Example 938]
output: < 100 nM

input: Another compound to look at: COc1cc(C2CCNCC2)ccc1Nc1ncc2c(C)cc(-c3ccccc3N(C)S(C)(=O)=O)n2n1 [Example 1263]
output: < 100 nM

input: Same read-out for COc1cc(C2CCNCC2)ccc1Nc1ncc2ccc(-c3ccccc3OC)n2n1 [Example 820] ?
output: < 100 nM

input: Proceed to COc1ccccc1-c1ccc2cnc(Nc3ccc(N4CCN(C)CC4)cn3)nn12 [Example 1177]
output: 100 to 1000 nM

input: Record: COc1cc(C2CCN(CC(N)=O)CC2)ccc1Nc1ncc2ccc(-c3ccccc3-n3cccn3)n2n1 [Example 854]
output: < 100 nM

input: Cool, now CN(c1ccccc1-c1ccc2cnc(Nc3cccnc3)nn12)S(C)(=O)=O [Example 1361]
output: 1000 to 10000 nM

input: Would you mind doing CN1CCN(c2ncc3ccc(-c4ccccc4N(C)S(C)(=O)=O)n3n2)CC1 [Example 1250] as well?
output: 1000 to 10000 nM
